Just for reference, patent US9611457B2 is where these values come from.

ATTRIBUTE MEASURED: melting point

Ask: Return the recorded melting point value; entry: COC(=O)c1cccc(Nc2nc(Oc3ccccc3)nc(Oc3ccc(OC)cc3)n2)c1 [(11)]
Result: 56 to 60 °C

Ask: Return the recorded melting point value; entry: CC(C)(C)OC(=O)c1cccc(Nc2nc(Oc3ccccc3)nc(Oc3ccccc3)n2)c1 [(18)]
Result: 208 to 209 °C

Ask: Return the recorded melting point value; entry: COc1cc(C=O)ccc1Oc1nc(Nc2cccc(C(=O)OC(C)(C)C)c2)nc(Oc2ccccc2)n1 [(26)]
Result: 76 to 79 °C

Ask: Return the recorded melting point value; entry: COc1ccc(Oc2nc(Nc3cccc(C(=O)OC(C)(C)C)c3)nc(Oc3ccccc3)n2)cc1 [(23)]
Result: 68 to 70 °C

Ask: Return the recorded melting point value; entry: CC(C)(C)OC(=O)c1cccc(Nc2nc(Oc3ccccc3)nc(Oc3cccc([N+](=O)[O-])c3)n2)c1 [(25)]
Result: 137 to 148 °C

Ask: Return the recorded melting point value; entry: O=C(O)c1cccc(Nc2nc(Oc3ccccc3)nc(Oc3cccc(Cl)c3)n2)c1 [(30)]
Result: 227 to 230 °C

Ask: Return the recorded melting point value; entry: COC(=O)c1cccc(Nc2nc(Oc3ccccc3)nc(Oc3cccc(Cl)c3)n2)c1 [(8)]
Result: 151.5 to 156 °C

Ask: Return the recorded melting point value; entry: COc1ccc(Oc2nc(Nc3cccc(C(=O)O)c3)nc(Oc3ccc(C=O)cc3OC)n2)cc1 [(37)]
Result: 180 to 182 °C
